# EXPERIMENTAL SYSTEM: Chromo domain-containing protein 1 (Saccharomyces cerevisiae (strain ATCC 204508 / S288c) (Baker's yeast))
# EXPERIMENTAL PROTOCOL: ScCHD-1 Enzyme Inhibition Assay; note: in the data most compounds retested in dose-response had high values
# Assay type: functional
# Set-up: scale not given: direction of the effect not stated beside the values
# RUN PARAMETERS: 30 µM
READOUT KIND: Percent Effect (%)
Report only the number, with the unit % understood.

Example results:
compound=CCn1ccnc1CN1CCCN(C(=O)Cc2ccc(C)nc2)CC1 readout_kind="Percent Effect" unit_spec=% numeric_readout=-16.3
compound="COc1ccc(C)cc1CC(=O)N1CCN(CC(C)O)CC1 (centres undefined)" readout_kind="Percent Effect" unit_spec=% numeric_readout=-7.21
compound="O=C1CSC(c2ccsc2)c2c(n(C3CCOCC3)[nH]c2=O)N1 (centres undefined)" readout_kind="Percent Effect" unit_spec=% numeric_readout=-11.9
compound=O=C(c1cc(-n2cccc2)ccc1Cl)N1CCC2(CC1)OCCO2 readout_kind="Percent Effect" unit_spec=% numeric_readout=-2.85
compound=Cc1csc(CN2CCC[C@]3(C[C@H](Oc4ccccn4)CO3)C2)n1 readout_kind="Percent Effect" unit_spec=% numeric_readout=-4.03
compound="Cc1ccccc1CC(=O)N1CCN(C2CCOC2=O)CC1 (centres undefined)" readout_kind="Percent Effect" unit_spec=% numeric_readout=-7.37
compound=O=C(NCC1CC1)[C@H]1C[C@@H]2[C@@H](C1)OCCN2Cc1cccnc1 readout_kind="Percent Effect" unit_spec=% numeric_readout=4.12
compound="c1cnc(N2CCC3(CCN(CC4CCOC4)C3)CC2)nc1 (centres undefined)" readout_kind="Percent Effect" unit_spec=% numeric_readout=-4.21

QUERY: Entry under review: COc1cccc([C@@H]2CCN(Cc3ccc4ccccc4n3)C[C@H]2O)c1 . Reported Percent Effect?
RESULT: -2.92

QUERY: Entry under review: CC(C)CN1CCC2(CC1)C(=O)Nc1ccc(C(=O)N(C)C)cc12 . Reported Percent Effect?
RESULT: -2.28

QUERY: Entry under review: c1cc(CO[C@@H]2CC[C@H]3[C@H]2OCCN3Cc2ccoc2)ccn1 . Reported Percent Effect?
RESULT: 1.36

QUERY: Entry under review: CCn1cc(CN2CCCN(C(=O)Cc3ccc(C)nc3)CC2)cn1 . Reported Percent Effect?
RESULT: -14.6

QUERY: Entry under review: c1cncc(OC[C@]23COC[C@H]2CN(Cc2cccs2)C3)c1 . Reported Percent Effect?
RESULT: 4.29

QUERY: Entry under review: CN(C)C(=O)CN1C[C@@H]2CC[C@H](C1)N(C(=O)Cc1ccccc1Cl)C2 . Reported Percent Effect?
RESULT: -1.84

###

The following molecules are shown together with reported Percent Effect values.
# EXPERIMENTAL SYSTEM: Aspartate--tRNA(Asp/Asn) ligase (Mycobacterium tuberculosis (strain ATCC 25618 / H37Rv)) (UniProt P9WFW3); note: in the data most compounds retested in dose-response had high values
# EXPERIMENTAL PROTOCOL: Assay for Asp RNA synthetase-1 from Mycobacterium tuberculosis
# Assay type: functional
# Design: scale not given: direction of the effect not stated beside the values
# RUN PARAMETERS: 30 µM
Report only the number, with the unit % understood.

Example results:
molecule=CCN1CCn2nc(CCC(=O)N3CCCC3)cc2C1 unit_spec=% numeric_readout=-0.386
molecule=Cc1ccc(-n2nnc(CC(=O)N3CCOCC3)c2C)cc1 unit_spec=% numeric_readout=2.26
molecule="O=S(=O)(NCC1(O)CCOc2ccccc21)c1cccs1 (configuration not stated)" unit_spec=% numeric_readout=-0.546
molecule="Cc1cc(C(=O)NCC2COCc3c(C)nnn3C2)no1 (configuration not stated)" unit_spec=% numeric_readout=2.38
molecule="COc1ccc(F)cc1C(C)NC(=O)c1nnc(C)s1 (configuration not stated)" unit_spec=% numeric_readout=1.79

# next molecule below
QUERY: Entry under review: COC(=O)CCN1CCCC1c1ccccc1Cl (configuration not stated) . Reported Percent Effect?
RESULT: 2.1

###

# EXPERIMENTAL SYSTEM: Shiga toxin 2 (Escherichia coli O157:H7) (UniProt P09385+P09386)
# EXPERIMENTAL PROTOCOL: E. coli 0.157:H7 Shiga Toxin SOP - stx2 screening assay
# Type: functional
# Parameters: scale not given: direction of the effect not stated beside the values
# RUN PARAMETERS: 30 µM
The following compounds are shown together with reported Percent Effect values.
Report only the number, with the unit % understood.

QUERY: Entry under review: N#Cc1ccc(C(=O)N2CC[C@H]3[C@@H]2CCC(=O)N3c2cccnc2)cc1 . Reported Percent Effect?
RESULT: -9.02

###

The following molecules are shown together with reported Percent Effect values.
# EXPERIMENTAL SYSTEM: Shiga toxin 2 (Escherichia coli O157:H7) (UniProt P09385+P09386)
# EXPERIMENTAL PROTOCOL: E. coli 0.157:H7 Shiga Toxin SOP - stx2 screening assay
# Format: functional
# Parameters: scale not given: direction of the effect not stated beside the values
# RUN PARAMETERS: 30 µM
Report only the number, with the unit % understood.

Example results:
molecule=COc1c(CNCCNC(=O)c2ccc(C)cc2)c(C)nn1C experimental_system="Shiga toxin 2 (Escherichia coli O157:H7) (UniProt P09385+P09386)" readout_kind="Percent Effect" numeric_readout=-32.3
molecule="CN(CCC(F)(F)F)C(=O)C1CCCN1C(=O)OC(C)(C)C (centres undefined)" experimental_system="Shiga toxin 2 (Escherichia coli O157:H7) (UniProt P09385+P09386)" readout_kind="Percent Effect" numeric_readout=-21.4
molecule=CCN(CC(=O)NC)S(=O)(=O)N1CCCCCC1 experimental_system="Shiga toxin 2 (Escherichia coli O157:H7) (UniProt P09385+P09386)" readout_kind="Percent Effect" numeric_readout=6.63
molecule="CC(=O)Nc1nc(C(=O)NC(C)c2ccc3c(c2)OCCO3)cs1 (centres undefined)" experimental_system="Shiga toxin 2 (Escherichia coli O157:H7) (UniProt P09385+P09386)" readout_kind="Percent Effect" numeric_readout=7.36

# next molecule below
QUERY: Entry under review: CC1=N[C@@]2(CC[C@@H]3CN(S(=O)(=O)N(C)C)C[C@@H]32)C(=O)N1CC(C)C . Reported Percent Effect?
RESULT: -4.62

###

# EXPERIMENTAL SYSTEM: Aspartate--tRNA(Asp/Asn) ligase (Mycobacterium tuberculosis (strain ATCC 25618 / H37Rv)); note: in the data most compounds retested in dose-response had high values
# Sequence (whole entry): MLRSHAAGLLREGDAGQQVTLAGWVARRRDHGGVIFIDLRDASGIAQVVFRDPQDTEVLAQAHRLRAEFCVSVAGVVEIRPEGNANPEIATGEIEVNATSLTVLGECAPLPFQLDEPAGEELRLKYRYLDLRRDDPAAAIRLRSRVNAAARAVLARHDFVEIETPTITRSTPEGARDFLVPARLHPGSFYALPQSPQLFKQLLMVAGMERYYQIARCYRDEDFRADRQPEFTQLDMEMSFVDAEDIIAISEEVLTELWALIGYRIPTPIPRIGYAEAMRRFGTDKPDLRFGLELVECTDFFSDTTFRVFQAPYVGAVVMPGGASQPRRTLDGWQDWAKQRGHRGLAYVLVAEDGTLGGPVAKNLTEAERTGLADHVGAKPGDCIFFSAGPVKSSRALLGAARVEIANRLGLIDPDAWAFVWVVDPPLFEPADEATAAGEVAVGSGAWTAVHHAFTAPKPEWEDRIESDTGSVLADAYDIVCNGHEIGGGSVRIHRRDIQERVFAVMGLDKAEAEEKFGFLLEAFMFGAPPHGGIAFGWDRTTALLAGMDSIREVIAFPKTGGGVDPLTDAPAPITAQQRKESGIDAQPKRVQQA
# EXPERIMENTAL PROTOCOL: Assay for Asp RNA synthetase-1 from Mycobacterium tuberculosis
# Type: functional
# Parameters: scale not given: direction of the effect not stated beside the values
# RUN PARAMETERS: 30 µM
READOUT KIND: Percent Effect (%)
Report only the number, with the unit % understood.

Example results:
compound="CC(=O)N1CCN(C(=O)C(C)n2cncn2)CC1 (centres undefined)" readout_kind="Percent Effect" unit_spec=% numeric_readout=-4.44
compound=COc1ccc(C(=O)NS(=O)(=O)c2cncc(Br)c2)cc1OC readout_kind="Percent Effect" unit_spec=% numeric_readout=0.457
compound="O=C1CC(c2ccc(F)c(F)c2)c2snc(C(=O)O)c2N1 (centres undefined)" readout_kind="Percent Effect" unit_spec=% numeric_readout=3.57
compound="Cn1nccc1C(=O)N1CCOC(Cc2cccnc2)C1 (centres undefined)" readout_kind="Percent Effect" unit_spec=% numeric_readout=-0.485
compound=Cc1ncoc1C(=O)N1C[C@H]2CCC[C@@]2(COCC2CCOCC2)C1 readout_kind="Percent Effect" unit_spec=% numeric_readout=-1.27
compound="CN(Cc1nnc(C2CC2)n1C)C1CCN(CCc2cccs2)C1 (centres undefined)" readout_kind="Percent Effect" unit_spec=% numeric_readout=1.39

QUERY: Return Percent Effect measured with Aspartate--tRNA(Asp/Asn) ligase (Mycobacterium tuberculosis (strain ATCC 25618 / H37Rv)) given this compound: Cc1nc(CC(=O)N2CCCCC2c2ccn3ccnc3n2)cs1 (centres undefined)
RESULT: -0.0744

QUERY: Return Percent Effect measured with Aspartate--tRNA(Asp/Asn) ligase (Mycobacterium tuberculosis (strain ATCC 25618 / H37Rv)) given this compound: Cc1cc(N2CCN(Cc3ccc(-c4cc[nH]n4)o3)CC2)cc(C)n1
RESULT: 0.126

QUERY: Return Percent Effect measured with Aspartate--tRNA(Asp/Asn) ligase (Mycobacterium tuberculosis (strain ATCC 25618 / H37Rv)) given this compound: O=C(c1cccn1Cc1cccs1)N1CCN(C2CC2)CC1
RESULT: -1.4

QUERY: Return Percent Effect measured with Aspartate--tRNA(Asp/Asn) ligase (Mycobacterium tuberculosis (strain ATCC 25618 / H37Rv)) given this compound: O=C(CN(C1=NCCCC1)c1ccccc1)c1ccccc1
RESULT: 2.67

QUERY: Return Percent Effect measured with Aspartate--tRNA(Asp/Asn) ligase (Mycobacterium tuberculosis (strain ATCC 25618 / H37Rv)) given this compound: O=C(CC1CCCC1)N1CCCC1c1nc(O)cc(-c2ccccn2)n1 (centres undefined)
RESULT: -2.84
